Source listed as patent US20240158446A1.

Biological target: GDP-bound KRAS wild-type protein (Homo sapiens, UniProt P01116)
Sequence (P01116 whole entry): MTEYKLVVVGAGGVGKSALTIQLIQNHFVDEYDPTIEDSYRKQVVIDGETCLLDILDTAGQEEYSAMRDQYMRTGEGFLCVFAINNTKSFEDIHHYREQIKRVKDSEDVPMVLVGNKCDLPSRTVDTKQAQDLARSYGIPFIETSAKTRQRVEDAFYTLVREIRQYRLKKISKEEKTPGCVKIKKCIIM
Experiment: Binding to KRAS by surface plasmon resonance (SPR), Single Cycle Kinetics
Settings: SPR, Single Cycle Kinetics, 1:1 binding model; GDP-bound KRAS wild-type protein; read-out: KRAS KD
Recorded measurements of pKd, one per entry
For clarity, pKd is expressed as the negative log10 of concentration in mol/L.

Worked examples follow.
compound	target system	pKd
CCO[C@@H]1C[C@H]2C(=O)NC3(CCC3)C(=O)N(C)[C@@H](C3CCCC3)C(=O)N(C)[C@H](C(=O)N3CCOCC3)CC(=O)N(C)[C@@H](CC(C)C)C(=O)N[C@@H]([C@@H](C)CC)C(=O)N(C)CC(=O)N(C)[C@H]3CC/C=C(/C)CN(C3=O)[C@@H](Cc3ccc(C(F)(F)F)cc3)C(=O)N(C)CC(=O)N[C@@H](CCc3cc(F)c(C(F)(F)F)c(F)c3)C(=O)N2C1 [PP1333]	GDP-bound KRAS wild-type protein (Homo sapiens, UniProt P01116)	7.24
CCO[C@@H]1C[C@H]2C(=O)NC3(CCC3)C(=O)N(C)[C@@H](C3CCCC3)C(=O)N(C)[C@H](C(=O)N3CCOCC3)CC(=O)N(C)[C@@H](CC3CCCCC3)C(=O)N[C@@H]([C@@H](C)CC)C(=O)N(C)CC(=O)N(C)[C@H]3C/C=C\CCN(C3=O)[C@@H](Cc3ccc(C(F)(F)F)cc3)C(=O)N(C)CC(=O)N[C@@H](CCc3cc(F)c(C(F)(F)F)c(F)c3)C(=O)N2C1 [PP1418]	GDP-bound KRAS wild-type protein (Homo sapiens, UniProt P01116)	9.62

Consider now this further compound.
Report pKd for CCO[C@@H]1C[C@H]2C(=O)NC3(CCC3)C(=O)N(C)[C@@H](C3CCCC3)C(=O)N(C)[C@H](C(=O)N3CCOCC3)CC(=O)N(C)[C@@H](CC)C(=O)N[C@@H]([C@@H](C)CC)C(=O)N(C)CC(=O)N(C)[C@H]3CC/C=C(/C)CN(C3=O)[C@@H](Cc3ccc(C(F)(F)F)cc3)C(=O)N(C)CC(=O)N[C@@H](CCc3cc(F)c(C(F)(F)F)c(F)c3)C(=O)N2C1 [PP1335] tested on GDP-bound KRAS wild-type protein (Homo sapiens, UniProt P01116).
7.74

====

Molecular target: UniProtKB P01116
Assay: Binding to KRAS by surface plasmon resonance (SPR), Single Cycle Kinetics
Conditions: SPR, Single Cycle Kinetics, GDP-bound KRAS wild-type protein; read-out: KRAS KD
Where a SMILES comes first, the peptide text is derived from it. Bridges are numbered along the chain shown (N, C = ends). [ ]: non-standard residue; d: D form. The star is where a group is joined. hPhe(3-Cl-4-CF3) = N[C@@H](CCc1ccc(C(F)(F)F)c(Cl)c1)C(=O)O; NPrPhe(4-CF3) = CCCN[C@@H](Cc1ccc(C(F)(F)F)cc1)C(=O)O; NMeNva(3-Et) = CCC(CC)[C@H](NC)C(=O)O; NMeD = CN[C@@H](CC(=O)O)C(=O)O; NMeL = CN[C@@H](CC(C)C)C(=O)O; Morpholide = C1CN(*)CCO1; Ac4c = NC1(C(=O)O)CCC1; Sar = CNCC(=O)O
Rule: measured Kd below 500 pM gets MET; anything equal to or greater than 500 pM gets NOT MET.

Solved cases (3 shown):
molecule	class assignment
CCCC[C@H]1C(=O)N[C@@H]([C@@H](C)CC)C(=O)N(C)CC(=O)N(C)[C@H]2C/C=C\CCN(C2=O)[C@@H](Cc2ccc(C(F)(F)F)cc2)C(=O)N(C)CC(=O)N[C@@H](CCc2cc(F)c(C(F)(F)F)c(F)c2)C(=O)N2C[C@H](OCC)C[C@H]2C(=O)NC2(CCC2)C(=O)N(C)[C@@H](C2CCCC2)C(=O)N(C)[C@H](C(=O)N(C)CCC)CC(=O)N1C [PP1704]	MET
CCO[C@@H]1C[C@H]2C(=O)NC3(CC(C)(C)C3)C(=O)N(C)[C@@H](C(CC)CC)C(=O)N(C)[C@H](C(=O)N(C)C)CC(=O)N(C)[C@H]3CCCCC/C=C/c4ccc(cc4)C[C@@H](C(=O)N(C)CC(=O)N[C@@H](CCc4cc(F)c(C(F)(F)F)c(F)c4)C(=O)N2C1)N1CC/C=C\C[C@@H](C1=O)N(C)C(=O)CN(C)C(=O)[C@H]([C@@H](C)CC)NC3=O [PP3048]	MET
CCCCO[C@@H]1C[C@H]2C(=O)NC3(CCC3)C(=O)N(C)[C@@H](C3CCCC3)C(=O)N(C)[C@H](C(=O)N3CCOCC3)CC(=O)N(C)[C@@H](CC(C)C)C(=O)N[C@@H]([C@@H](C)CC)C(=O)N(C)CC(=O)N(C)[C@H]3CCCCN(C3=O)[C@@H](Cc3ccc(C(F)(F)F)cc3)C(=O)N(C)CC(=O)N[C@@H](CCc3cc(F)c(C(F)(F)F)c(F)c3)C(=O)N2C1 [PP0999]	MET

Now look at this entry.
Quick check: Kd of CCCN1C(=O)CN(C)C(=O)CN(C)C(=O)[C@H]([C@@H](C)CC)NC(=O)[C@H](CC(C)C)N(C)C(=O)C[C@@H](C(=O)N2CCOCC2)N(C)C(=O)[C@H](C(CC)CC)N(C)C(=O)C2(CCC2)NC(=O)[C@@H]2CCCN2C(=O)[C@H](CCc2ccc(C(F)(F)F)c(Cl)c2)NC(=O)CN(C)C(=O)[C@@H]1Cc1ccc(C(F)(F)F)cc1 [PP1958] ([NMeL]I[Sar][Sar][NPrPhe(4-CF3)][Sar][hPhe(3-Cl-4-CF3)]P[Ac4c][NMeNva(3-Et)][NMeD]-Morpholide; lactam N-11) under 500 pM?
NOT MET
